System: NQO1 specific enzyme activity in BEAS-2B cells (marker for NRF2 activation)
TEST PROTOCOL: Beas2B NQO1 MTT Assay
Assay type: cell-based
RUN CONDITIONS: Homo sapiens, NQO1 specific activity induction, 48 hours with compound
REPORTED METRIC: EC50

Cc1c(CN2C[C@@H](C)Cc3ccc(C(F)(F)F)cc3S2(=O)=O)cccc1-n1ccc(C(=O)O)c1[C@@H]1C[C@H]1c1cn(C)nn1 (racemic) [Example 10]; 100 to 1000 nM
CCC[C@@H]1CCCCN1C(=O)c1cc(F)cc(-c2cccc(-n3ccc(C(=O)O)c3[C@@H]3C[C@H]3c3cn(C)nn3)c2)c1 [Example 23]; 10 to 100 nM

Value of measured EC50 for the entry C[C@H](Oc1cccc(-c2cccc(-n3ccc(C(=O)O)c3[C@H]3C[C@@H]3c3cn(C)nn3)c2)c1)C1CCCCC1 [Example 17] : 10 to 100 nM

For Cn1cc([C@@H]2C[C@H]2c2c(C(=O)O)ccn2-c2cccc(CN3Cc4cc(Br)ccc4OC(C)(C)C3)c2)nn1 (racemic) [Example 20] the molecule record lists EC50 as 100 to 1000 nM
